target: elastase from human neutrophil (Homo sapiens); construct: using elastase from human neutrophil; from tissue; host or cells: human neutrophil; assay: Inhibitory effect on elastase (spectrophotometric method, substrate Suc-Ala-Pro-Ala-pNA); format: biochemical; settings: at 100 μM; Y represents an oxygen atom
Measured Parameter: inhibition at 100 µM (%)

[[record]]
chemical_smiles = "CN(C)C(=O)c1cccc(OC(=O)c2ccc(NC(=N)N)cc2)c1"
quantity_unit = "%"
recorded_number = 30

[[record]]
chemical_smiles = "Cc1cc(C)cc(OC(=O)c2ccc(NC(=N)N)cc2)c1"
quantity_unit = "%"
recorded_number = 46.2

[[record]]
chemical_smiles = "N=C(N)Nc1ccc(C(=O)Oc2cc(OC(=O)c3ccc(NC(=N)N)cc3)cc(OC(=O)c3ccc(NC(=N)N)cc3)c2)cc1"
quantity_unit = "%"
recorded_number = 38

[[record]]
chemical_smiles = "N=C(N)Nc1ccc(C(=O)Oc2ccc(I)cc2)cc1"
quantity_unit = "%"
recorded_number = 11.2

[[record]]
chemical_smiles = "Cc1cccc(OC(=O)c2ccc(NC(=N)N)cc2)c1"
quantity_unit = "%"
recorded_number = 45.6

[[record]]
chemical_smiles = "N=C(N)Nc1ccc(C(=O)Oc2ccc(S(=O)(=O)N3CCOCC3)cc2)cc1"
quantity_unit = "%"
recorded_number = 34.9

[[record]]
chemical_smiles = "N=C(N)Nc1ccc(C(=O)Oc2cc(Cl)ccc2Cl)cc1"
quantity_unit = "%"
recorded_number = 85.8

[[record]]
chemical_smiles = "N=C(N)Nc1ccc(C(=O)Oc2cccc(Cl)c2)cc1"
quantity_unit = "%"
recorded_number = 87.6

[[record]]
chemical_smiles = "COCc1cc(O)cc(OC(=O)c2ccc(NC(=N)N)cc2)c1"
quantity_unit = "%"
recorded_number = 14


====

Biological target: elastase from human neutrophil (Homo sapiens)
Construct: using elastase from human neutrophil; from tissue; host or cells: human neutrophil
Sequence (P08246 30-247 limits assumed): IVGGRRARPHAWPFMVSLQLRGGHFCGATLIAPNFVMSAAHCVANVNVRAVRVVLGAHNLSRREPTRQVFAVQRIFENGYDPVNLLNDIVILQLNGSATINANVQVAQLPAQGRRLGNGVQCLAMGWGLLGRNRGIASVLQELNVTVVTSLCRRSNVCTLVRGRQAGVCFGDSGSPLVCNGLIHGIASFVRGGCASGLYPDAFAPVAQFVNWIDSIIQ
Test: Inhibitory effect on elastase (spectrophotometric method, substrate Suc-Ala-Pro-Ala-pNA)
Assay type: biochemical
Settings: at 100 μM; Y represents an oxygen atom
Reported inhibition at 100 µM values for a set of molecules
Measured Parameter: inhibition at 100 µM (%)

[[record]]
molecule = "COC(=O)Cc1ccc(OC(=O)c2ccc(NC(=N)N)cc2)c(Cl)c1"
recorded_number = 40

[[record]]
molecule = "N=C(N)Nc1ccc(C(=O)Oc2ccc([N+](=O)[O-])cc2)cc1"
recorded_number = 60.1

[[record]]
molecule = "Cc1ccc(OC(=O)c2ccc(NC(=N)N)cc2)cc1 [Example 4-methyl, reference compound]"
recorded_number = 28.4

[[record]]
molecule = "N=C(N)Nc1ccc(C(=O)Oc2cccc(C(F)(F)F)c2)cc1"
recorded_number = 71.4

[[record]]
molecule = "CNC(=O)c1cc(OC(=O)c2ccc(NC(=N)N)cc2)cc(OC(=O)c2ccc(NC(=N)N)cc2)c1"
recorded_number = 38

[[record]]
molecule = "COC(=O)c1ccc(Cl)cc1OC(=O)c1ccc(NC(=N)N)cc1"
recorded_number = 92.2

[[record]]
molecule = "COC(=O)c1ccc(OC(=O)c2ccc(NC(=N)N)cc2)cc1Cl"
recorded_number = 42

[[record]]
molecule = "N=C(N)Nc1ccc(C(=O)Oc2ccc(F)cc2)cc1"
recorded_number = 10.7

[[record]]
molecule = "COC(=O)c1cccc(OC(=O)c2ccc(NC(=N)N)cc2)c1Cl"
recorded_number = 90.7

[[record]]
molecule = "N=C(N)Nc1ccc(C(=O)Oc2cccc(OC(=O)c3ccccc3)c2)cc1"
recorded_number = 78.3

[[record]]
molecule = "CC(=O)Oc1cccc(OC(=O)c2ccc(NC(=N)N)cc2)c1"
recorded_number = 25.7

[[record]]
molecule = "COc1ccc(OC(=O)c2ccc(NC(=N)N)cc2)cc1"
recorded_number = 44.4

[[record]]
molecule = "N=C(N)Nc1ccc(C(=O)Oc2cc(O)cc(OC(=O)c3ccc(NC(=N)N)cc3)c2)cc1"
recorded_number = 42

[[record]]
molecule = "COC(=O)Cc1ccc(OC(=O)c2ccc(NC(=N)N)cc2)cc1Cl"
recorded_number = 13.3

[[record]]
molecule = "N=C(N)Nc1ccc(C(=O)Oc2cc(Cl)cc(Cl)c2)cc1 [Example 1, methanesulfonate]"
recorded_number = 97

[[record]]
molecule = "COC(=O)c1cc(O)cc(OC(=O)c2ccc(NC(=N)N)cc2)c1"
recorded_number = 45

[[record]]
molecule = "N=C(N)Nc1ccc(C(=O)Oc2c(F)c(F)c(F)c(F)c2F)cc1"
recorded_number = 92.1

[[record]]
molecule = "N=C(N)Nc1ccc(C(=O)Oc2cccc(S(=O)(=O)N3CCOCC3)c2)cc1"
recorded_number = 44.2


====

# Lookup of reported inhibition at 100 µM keyed by entry
Target: elastase from human neutrophil (Homo sapiens, UniProt P08246)
Construct: using elastase from human neutrophil; from tissue; host or cells: human neutrophil
Sequence (P08246 30-247 limits assumed): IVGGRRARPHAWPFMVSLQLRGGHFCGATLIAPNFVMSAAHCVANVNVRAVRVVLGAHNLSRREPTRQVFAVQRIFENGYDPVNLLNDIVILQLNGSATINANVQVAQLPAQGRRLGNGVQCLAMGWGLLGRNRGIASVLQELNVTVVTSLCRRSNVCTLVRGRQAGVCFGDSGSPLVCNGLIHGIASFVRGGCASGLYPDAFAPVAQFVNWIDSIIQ
Assay: Inhibitory effect on elastase (spectrophotometric method, substrate Suc-Ala-Pro-Ala-pNA)
Format: biochemical
Settings: at 100 μM; Y represents an oxygen atom
Measured Parameter: inhibition at 100 µM (%)

[[record]]
chemical_smiles = "COc1cc(Cl)cc(OC(=O)c2ccc(NC(=N)N)cc2)c1"
measured_parameter = "inhibition at 100 µM"
quantity_unit = "%"
recorded_number = 91.1

[[record]]
chemical_smiles = "N=C(N)Nc1ccc(C(=O)Oc2cc(OC(=O)c3ccc(NC(=N)N)cc3)cc(C(=O)NCc3ccccc3)c2)cc1"
measured_parameter = "inhibition at 100 µM"
quantity_unit = "%"
recorded_number = 27

[[record]]
chemical_smiles = "CCCNC(=O)c1cc(OC(=O)c2ccc(NC(=N)N)cc2)cc(C(=O)NCCC)c1"
measured_parameter = "inhibition at 100 µM"
quantity_unit = "%"
recorded_number = 36

[[record]]
chemical_smiles = "N=C(N)Nc1ccc(C(=O)Oc2ccc(C(=O)c3ccccc3)cc2Cl)cc1"
measured_parameter = "inhibition at 100 µM"
quantity_unit = "%"
recorded_number = 57.1

[[record]]
chemical_smiles = "N=C(N)Nc1ccc(C(=O)Oc2cccc(S(=O)(=O)N3CCCCC3)c2)cc1"
measured_parameter = "inhibition at 100 µM"
quantity_unit = "%"
recorded_number = 41

[[record]]
chemical_smiles = "COC(=O)c1ccc(OC(=O)c2ccc(NC(=N)N)cc2)c(Cl)c1"
measured_parameter = "inhibition at 100 µM"
quantity_unit = "%"
recorded_number = 55.6

[[record]]
chemical_smiles = "N=C(N)Nc1ccc(C(=O)Oc2c(Cl)cccc2Cl)cc1"
measured_parameter = "inhibition at 100 µM"
quantity_unit = "%"
recorded_number = 89.9

[[record]]
chemical_smiles = "N=C(N)Nc1ccc(C(=O)Oc2cccc(NC(=N)N)c2)cc1"
measured_parameter = "inhibition at 100 µM"
quantity_unit = "%"
recorded_number = 20

[[record]]
chemical_smiles = "CC(=O)Oc1ccc(OC(=O)c2ccc(NC(=N)N)cc2)cc1"
measured_parameter = "inhibition at 100 µM"
quantity_unit = "%"
recorded_number = 27.8

[[record]]
chemical_smiles = "N=C(N)Nc1ccc(C(=O)Oc2cccc(Br)c2)cc1"
measured_parameter = "inhibition at 100 µM"
quantity_unit = "%"
recorded_number = 91.7

[[record]]
chemical_smiles = "COCc1cc(OC(=O)c2ccc(NC(=N)N)cc2)cc(OC(=O)c2ccc(NC(=N)N)cc2)c1"
measured_parameter = "inhibition at 100 µM"
quantity_unit = "%"
recorded_number = 89

[[record]]
chemical_smiles = "CC(C)OC(=O)c1cc(OC(=O)c2ccc(NC(=N)N)cc2)cc(C(=O)OC(C)C)c1"
measured_parameter = "inhibition at 100 µM"
quantity_unit = "%"
recorded_number = 5.2

[[record]]
chemical_smiles = "CC(=O)c1cccc(OC(=O)c2ccc(NC(=N)N)cc2)c1"
measured_parameter = "inhibition at 100 µM"
quantity_unit = "%"
recorded_number = 4.1

[[record]]
chemical_smiles = "N=C(N)Nc1ccc(C(=O)Oc2ccccc2C(F)(F)F)cc1"
measured_parameter = "inhibition at 100 µM"
quantity_unit = "%"
recorded_number = 72.4

[[record]]
chemical_smiles = "CCNC(=O)c1cc(OC(=O)c2ccc(NC(=N)N)cc2)cc(C(=O)NCC)c1"
measured_parameter = "inhibition at 100 µM"
quantity_unit = "%"
recorded_number = 28

[[record]]
chemical_smiles = "N=C(N)Nc1ccc(C(=O)Oc2cccc(F)c2)cc1"
measured_parameter = "inhibition at 100 µM"
quantity_unit = "%"
recorded_number = 81.1

[[record]]
chemical_smiles = "CNC(=O)c1cc(O)cc(OC(=O)c2ccc(NC(=N)N)cc2)c1"
measured_parameter = "inhibition at 100 µM"
quantity_unit = "%"
recorded_number = 22

[[record]]
chemical_smiles = "COc1ccccc1OC(=O)c1ccc(NC(=N)N)cc1"
measured_parameter = "inhibition at 100 µM"
quantity_unit = "%"
recorded_number = 23.1


Cited source: patent US5247084A
